# Tested on: C57BL/6J mice
# Assay procedure: Acute single dose 120-min time-course experiment, in vivo glucose reduction in C57BL/6J mice
# Parameters: unit not given here
# Assay context: male C57BL/6J mice, 2 μM/kg, oral, 30 min, Mean ± SEM
Provide the reported blood glucose level of each item.
# print the numeric value only

Ask | // output blood glucose level; input CCc1cc(OC)ccc1-c1ccc(CC(NC(=O)[C@H](CC(=O)O)NC(=O)[C@H](CO)NC(=O)[C@@H](NC(=O)C(C)(Cc2ccccc2F)NC(=O)[C@@H](NC(=O)CNC(=O)[C@H](CCC(N)=O)NC(=O)C(C)(C)NC(=O)[C@@H](N)Cc2c[nH]cn2)[C@@H](C)O)[C@@H](C)O)C(=O)NC(Cc2ccc(-c3ccccc3C)nc2)C(N)=O)cc1 (single isomer, unassigned) [Seq. ID. No. 30] ; system C57BL/6J mice
Reply | 116

Ask | // output blood glucose level; input CCc1cc(OC)ccc1-c1ccc(CC(NC(=O)[C@H](CC(=O)O)NC(=O)[C@H](CO)NC(=O)[C@@H](NC(=O)C(C)(Cc2ccccc2F)NC(=O)[C@@H](NC(=O)CNC(=O)[C@H](CCC(N)=O)NC(=O)C2(NC(=O)[C@@H](N)Cc3c[nH]cn3)CC2)[C@@H](C)O)[C@@H](C)O)C(=O)NC(Cc2ccc(-c3ccccc3F)cc2)C(N)=O)cc1 (single isomer, unassigned) [Seq. ID. No. 35] ; system C57BL/6J mice
Reply | 118

Ask | // output blood glucose level; input CCc1cc(OC)ccc1-c1ccc(CC(NC(=O)[C@H](CC(=O)O)NC(=O)[C@H](CO)NC(=O)[C@@H](NC(=O)C(C)(Cc2ccccc2F)NC(=O)[C@@H](NC(=O)CNC(=O)[C@H](CCC(N)=O)NC(=O)C(C)(C)NC(=O)[C@@H](N)Cc2c[nH]cn2)[C@@H](C)O)[C@@H](C)O)C(=O)NC(Cc2ccc(-c3ccccc3C(F)(F)F)cc2)C(N)=O)cc1 (single isomer, unassigned) [Seq. ID. No. 32] ; system C57BL/6J mice
Reply | 117

Ask | // output blood glucose level; input CCc1cc(OC)ccc1-c1ccc(CC(NC(=O)[C@H](CC(=O)O)NC(=O)[C@H](CO)NC(=O)[C@@H](NC(=O)C(C)(Cc2ccccc2F)NC(=O)[C@@H](NC(=O)CNC(=O)[C@H](CCC(N)=O)NC(=O)C2(NC(=O)[C@@H](N)Cc3c[nH]cn3)CC2)[C@@H](C)O)[C@@H](C)O)C(=O)NC(Cc2ccc(-c3ccccc3C)nc2)C(N)=O)cc1 (single isomer, unassigned) [Seq. ID. No. 34] ; system C57BL/6J mice
Reply | 118

Ask | // output blood glucose level; input CCc1cc(OC)ccc1-c1ccc(CC(NC(=O)[C@H](CC(=O)O)NC(=O)[C@H](CO)NC(=O)[C@@H](NC(=O)C(C)(Cc2ccccc2F)NC(=O)[C@@H](NC(=O)CNC(=O)[C@H](CCC(N)=O)NC(=O)C2(NC(=O)[C@@H](N)Cc3c[nH]cn3)CC2)[C@@H](C)O)[C@@H](C)O)C(=O)NC(Cc2ccc(-c3ccccc3C(F)(F)F)cc2)C(N)=O)cc1 (single isomer, unassigned) [Seq. ID. No. 36] ; system C57BL/6J mice
Reply | 119

Ask | // output blood glucose level; input CCc1cc(OC)ccc1-c1ccc(CC(NC(=O)[C@H](CC(=O)O)NC(=O)[C@H](CO)NC(=O)[C@@H](NC(=O)C(C)(Cc2ccccc2F)NC(=O)[C@@H](NC(=O)CNC(=O)[C@H](CCC(N)=O)NC(=O)C(C)(C)NC(=O)[C@@H](N)Cc2c[nH]cn2)[C@@H](C)O)[C@@H](C)O)C(=O)NC(Cc2ccc(-c3ccccc3F)cc2)C(N)=O)cc1 (single isomer, unassigned) [Seq. ID. No. 31] ; system C57BL/6J mice
Reply | 115

Ask | // output blood glucose level; input CCc1cc(OC)ccc1-c1ccc(CC(NC(=O)[C@H](CC(=O)O)NC(=O)[C@H](CO)NC(=O)[C@@H](NC(=O)C(C)(Cc2ccccc2F)NC(=O)[C@@H](NC(=O)CNC(=O)[C@H](CCC(N)=O)NC(=O)C(C)(C)NC(=O)[C@@H](N)Cc2c[nH]cn2)[C@@H](C)O)[C@@H](C)O)C(=O)NC(Cc2ccc(-c3ccccc3C)cc2)C(N)=O)cc1 (single isomer, unassigned) [Seq. ID. No. 29] ; system C57BL/6J mice
Reply | 115

Ask | // output blood glucose level; input CCc1cc(OC)ccc1-c1ccc(CC(NC(=O)[C@H](CC(=O)O)NC(=O)[C@H](CO)NC(=O)[C@@H](NC(=O)C(C)(Cc2ccccc2F)NC(=O)[C@@H](NC(=O)CNC(=O)[C@H](CCC(N)=O)NC(=O)C2(NC(=O)[C@@H](N)Cc3c[nH]cn3)CC2)[C@@H](C)O)[C@@H](C)O)C(=O)NC(Cc2ccc(-c3ccccc3C)cc2)C(N)=O)cc1 (single isomer, unassigned) [Seq. ID. No. 33] ; system C57BL/6J mice
Reply | 116

====

# Assay procedure: Stability in simulated intestinal fluid
# Assay type: in vitro ADME
# Assay context: simulated gi fluid; 2 μM, 37° C., pH 7.5; read-out: half-life (t1/2) in simulated intestinal fluid
Quantity name: half-life

Ask | Output half-life of CCc1cc(OC)ccc1-c1ccc(CC(NC(=O)[C@H](CC(=O)O)NC(=O)[C@H](CO)NC(=O)[C@@H](NC(=O)[C@H](Cc2ccccc2)NC(=O)[C@@H](NC(=O)CNC(=O)[C@H](CCC(N)=O)NC(=O)C2(NC(=O)[C@@H](N)Cc3c[nH]cn3)CC2)[C@@H](C)O)[C@@H](C)O)C(=O)NC(Cc2ccc(-c3ccccc3F)cc2)C(N)=O)cc1 (single isomer, unassigned) [compound 19]
Reply | > 24 h

Ask | Output half-life of CCc1cc(OC)ccc1-c1ccc(CC(NC(=O)[C@H](CC(=O)O)NC(=O)[C@H](CO)NC(=O)[C@@H](NC(=O)C(C)(Cc2ccccc2F)NC(=O)[C@@H](NC(=O)CNC(=O)[C@H](CCC(N)=O)NC(=O)C2(NC(=O)[C@@H](N)Cc3c[nH]cn3)CC2)[C@@H](C)O)[C@@H](C)O)C(=O)NC(Cc2ccc(-c3ccccc3C)cc2)C(N)=O)cc1 (single isomer, unassigned) [compound 33]
Reply | > 24 h

Ask | Output half-life of CCc1cc(OC)ccc1-c1ccc(CC(NC(=O)[C@H](CC(=O)O)NC(=O)[C@H](CO)NC(=O)[C@@H](NC(=O)[C@H](Cc2ccccc2)NC(=O)[C@@H](NC(=O)CNC(=O)[C@H](CCC(N)=O)NC(=O)C2(NC(=O)[C@@H](N)Cc3c[nH]cn3)CC2)[C@@H](C)O)[C@@H](C)O)C(=O)NC(Cc2ccc(-c3ccccc3C(F)(F)F)cc2)C(N)=O)cc1 (single isomer, unassigned) [compound 20]
Reply | > 24 h

====

# Assay procedure: Stability in simulated intestinal fluid
# Format: in vitro ADME
# Assay context: 2 μM, 37° C., 24 h, pH 7.5
Quantity name: % degradation in 24 h when incubated with simulated intestinal fluid

Ask | Output % degradation in 24 h when incubated with simulated intestinal fluid of CCc1cc(OC)ccc1-c1ccc(CC(NC(=O)[C@H](CC(=O)O)NC(=O)[C@H](CO)NC(=O)[C@@H](NC(=O)C(C)(Cc2ccccc2F)NC(=O)[C@@H](NC(=O)CNC(=O)[C@H](CCC(N)=O)NC(=O)[C@H](C)NC(=O)[C@@H](N)Cc2c[nH]cn2)[C@@H](C)O)[C@@H](C)O)C(=O)NC(Cc2ccc(-c3ccccc3C)cc2)C(N)=O)cc1 (single isomer, unassigned)
Reply | 46%

Ask | Output % degradation in 24 h when incubated with simulated intestinal fluid of CCc1cc(OC)ccc1-c1ccc(CC(NC(=O)[C@H](CC(=O)O)NC(=O)[C@H](CO)NC(=O)[C@@H](NC(=O)C(C)(Cc2ccccc2F)NC(=O)[C@@H](NC(=O)CNC(=O)[C@H](CCC(N)=O)NC(=O)C(C)(C)NC(=O)[C@@H](N)Cc2c[nH]cn2)[C@@H](C)O)[C@@H](C)O)C(=O)NC(Cc2ccc(-c3ccccc3F)cc2)C(N)=O)cc1 (single isomer, unassigned)
Reply | 00%

Ask | Output % degradation in 24 h when incubated with simulated intestinal fluid of CCc1cc(OC)ccc1-c1ccc(CC(NC(=O)[C@H](CC(=O)O)NC(=O)[C@H](CO)NC(=O)[C@@H](NC(=O)[C@H](Cc2ccccc2)NC(=O)[C@@H](NC(=O)CNC(=O)[C@H](CCC(N)=O)NC(=O)C2(NC(=O)[C@@H](N)Cc3c[nH]cn3)CC2)[C@@H](C)O)[C@@H](C)O)C(=O)NC(Cc2ccc(-c3ccccc3C)cc2)C(N)=O)cc1 (single isomer, unassigned)
Reply | 00%

Ask | Output % degradation in 24 h when incubated with simulated intestinal fluid of CCc1cc(OC)ccc1-c1ccc(CC(NC(=O)[C@H](CC(=O)O)NC(=O)[C@H](CO)NC(=O)[C@@H](NC(=O)C(C)(Cc2ccccc2F)NC(=O)[C@@H](NC(=O)CNC(=O)[C@H](CCC(N)=O)NC(=O)[C@H](CO)NC(=O)[C@@H](N)Cc2c[nH]cn2)[C@@H](C)O)[C@@H](C)O)C(=O)NC(Cc2ccc(-c3ccccc3C(F)(F)F)cc2)C(N)=O)cc1 (single isomer, unassigned)
Reply | 43%

Ask | Output % degradation in 24 h when incubated with simulated intestinal fluid of CCc1cc(OC)ccc1-c1ccc(CC(NC(=O)[C@H](CC(=O)O)NC(=O)[C@H](CO)NC(=O)[C@@H](NC(=O)C(C)(Cc2ccccc2F)NC(=O)[C@@H](NC(=O)CNC(=O)[C@H](CCC(N)=O)NC(=O)C(C)(C)NC(=O)[C@@H](N)Cc2c[nH]cn2)[C@@H](C)O)[C@@H](C)O)C(=O)NC(Cc2ccc(-c3ccccc3C(F)(F)F)cc2)C(N)=O)cc1 (single isomer, unassigned)
Reply | 00%
